Entry source: ChEMBL document CHEMBL4152228

Test system: MCF7
protocol-description: Induction of apoptosis in human MCF7 cells assessed as early apoptotic cells at 10 uM after 72 hrs by annexin V-FITC/propidium iodide staining-based flow cytometric method (reference value: 9%)
Type: functional
Activity strictly less than 20% = criterion met. Otherwise criterion not met.

# compound, group
data = [
    ("COc1ccc2nc3nc(NCc4ccc(CN5CCN(C)CC5)cc4)[nH]c(=O)c3nc2c1", "criterion met"),
    ("COc1ccc2nc3nc(NCc4ccc(CN(C)C)cc4)[nH]c(=O)c3nc2c1", "criterion not met"),
    ("O=c1[nH]c(NCc2ccc(CN3CCOCC3)cc2)nc2nc3ccc(Cl)cc3nc12", "criterion met"),
]

Lab note: confirm whether the reported Activity for this compound is below 20%, equality not counting. compound: COc1ccc(CCN2CCC(Nc3nc4nc5ccc(C)cc5nc4c(=O)[nH]3)CC2)cc1 criterion not met

Please indicate whether the reported Activity of CC(Nc1nc2nc3ccccc3nc2c(=O)[nH]1)c1ccccc1 (stereo not given) is strictly below 20%. criterion met

* * *

system: Calcium/calmodulin-dependent protein kinase type 1 (Homo sapiens)
protocol-description: Inhibition of CAMK1 (unknown origin) at 10 uM by [33P]-ATP radiometric assay
Reported inhibition by item:
Give just the number in %; leave the unit off.

Recorded inhibition, per entry:
# smi, endpoint-label, meas-value
data = [
    ("Cc1ccc(NC(=O)c2ccc(CN3CCN(C)CC3)cc2)cc1Nc1nccc(-c2cccnc2)n1", "inhibition", 10),
    ("COc1ccc(CCN2CCC(Nc3nc4nc5ccc(C)cc5nc4c(=O)[nH]3)CC2)cc1", "inhibition", 19),
    ("Cc1ccc2nc3nc(NCc4ccc(CN5CCN(C)CC5)cc4)[nH]c(=O)c3cc2c1", "inhibition", 18),
    ("O=c1[nH]c(NCc2ccc(CN3CCCCC3)cc2)nc2nc3ccccc3cc12", "inhibition", 5),
    ("COc1ccc2nc3nc(NCc4ccc(CN5CCN(C)CC5)cc4)[nH]c(=O)c3nc2c1", "inhibition", 19),
]

Proceed to the following item.
Entry CN1CCN(Cc2ccc(CNc3nc4nc5ccc(Cl)cc5cc4c(=O)[nH]3)cc2)CC1 — recorded inhibition = 14

* * *

Measured IC50 accompanies every entry in the list below.
Tested on: K562
protocol-description: Antiproliferative activity against human K562 cells after 72 hrs by MTT assay
Type: functional, cell-based
condition-notes: K562, 72 h

Illustrative cases are given below, each with its answer.
# molecule, endpoint-label, meas-value
measured = [
    ("O=c1[nH]c(NCc2ccc(CN3CCCCC3)cc2)nc2nc3ccccc3cc12", "IC50", "9.97 µM"),
    ("COc1ccc2nc3nc(NCc4ccc(CN5CCOCC5)cc4)[nH]c(=O)c3cc2c1", "IC50", "23.2 µM"),
    ("O=c1[nH]c(NCc2ccc(CN3CCOCC3)cc2)nc2nc3ccccc3nc12", "IC50", "> 50 µM"),
]

# molecule Cc1ccc2nc3nc(NCc4ccc(CN5CCCCC5)cc4)[nH]c(=O)c3cc2c1 ; its IC50 = 15.9 µM

Record summary for COc1ccc2nc3nc(NC(C)c4ccccc4)[nH]c(=O)c3nc2c1 (centres undefined) : reported IC50 = > 50 µM

GET /value?item= Cc1ccc(NC(=O)c2ccc(CN3CCN(C)CC3)cc2)cc1Nc1nccc(-c2cccnc2)n1 &field=IC50 returns 3.43 µM

Measured IC50, COc1ccc(CCN2CCC(Nc3nc4nc5ccc(OC)cc5nc4c(=O)[nH]3)CC2)cc1 : 17.3 µM

* * *

Listing of entries alongside the reported inhibition.
system: Epidermal growth factor receptor (Homo sapiens) (UniProt P00533)
Sequence (P00533 whole entry): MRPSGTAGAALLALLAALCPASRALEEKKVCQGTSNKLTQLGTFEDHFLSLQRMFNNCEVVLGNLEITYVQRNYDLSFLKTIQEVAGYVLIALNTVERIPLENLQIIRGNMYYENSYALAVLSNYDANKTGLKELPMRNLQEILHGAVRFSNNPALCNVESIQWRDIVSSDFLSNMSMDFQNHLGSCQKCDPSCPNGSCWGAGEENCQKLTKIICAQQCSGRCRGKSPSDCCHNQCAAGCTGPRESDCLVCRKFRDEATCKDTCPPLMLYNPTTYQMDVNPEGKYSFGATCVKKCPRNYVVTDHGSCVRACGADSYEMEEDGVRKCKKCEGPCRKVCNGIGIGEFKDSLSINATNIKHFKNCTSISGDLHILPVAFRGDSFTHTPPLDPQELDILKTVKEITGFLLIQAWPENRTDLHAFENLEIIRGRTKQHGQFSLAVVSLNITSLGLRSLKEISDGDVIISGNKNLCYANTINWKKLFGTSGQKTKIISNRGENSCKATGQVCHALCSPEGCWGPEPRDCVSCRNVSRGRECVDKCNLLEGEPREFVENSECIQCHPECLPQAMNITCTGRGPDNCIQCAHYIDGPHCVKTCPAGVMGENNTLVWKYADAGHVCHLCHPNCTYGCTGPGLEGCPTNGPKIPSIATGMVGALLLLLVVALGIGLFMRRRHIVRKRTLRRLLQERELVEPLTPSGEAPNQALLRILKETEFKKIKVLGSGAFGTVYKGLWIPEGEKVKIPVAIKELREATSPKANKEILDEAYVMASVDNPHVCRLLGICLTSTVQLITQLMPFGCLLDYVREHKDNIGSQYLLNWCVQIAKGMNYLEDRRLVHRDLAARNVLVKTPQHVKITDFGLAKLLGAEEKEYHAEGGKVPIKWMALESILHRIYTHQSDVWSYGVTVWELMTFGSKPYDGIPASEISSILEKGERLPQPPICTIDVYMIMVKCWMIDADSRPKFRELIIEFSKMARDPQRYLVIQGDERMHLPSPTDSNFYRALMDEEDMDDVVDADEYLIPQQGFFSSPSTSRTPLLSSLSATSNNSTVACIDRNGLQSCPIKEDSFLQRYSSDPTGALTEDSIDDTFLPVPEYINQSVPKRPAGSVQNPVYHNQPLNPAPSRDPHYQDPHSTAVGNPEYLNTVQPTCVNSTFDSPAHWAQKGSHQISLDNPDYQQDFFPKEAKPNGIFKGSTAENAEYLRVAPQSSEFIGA
protocol-description: Inhibition of EGFR (unknown origin) at 10 uM by [33P]-ATP radiometric assay

# smi, inhibition
rows = [
    ("COc1ccc(CCN2CCC(Nc3nc4nc5ccc(C)cc5nc4c(=O)[nH]3)CC2)cc1", "-2%"),
    ("O=c1[nH]c(NCc2ccc(CN3CCCCC3)cc2)nc2nc3ccccc3cc12", "-3%"),
    ("Cc1ccc2nc3nc(NCc4ccc(CN5CCN(C)CC5)cc4)[nH]c(=O)c3cc2c1", "12%"),
    ("CN1CCN(Cc2ccc(CNc3nc4nc5ccc(Cl)cc5cc4c(=O)[nH]3)cc2)CC1", "16%"),
]

inhibition reading for Cc1ccc(NC(=O)c2ccc(CN3CCN(C)CC3)cc2)cc1Nc1nccc(-c2cccnc2)n1 : 9%

Looking up COc1ccc2nc3nc(NCc4ccc(CN5CCN(C)CC5)cc4)[nH]c(=O)c3nc2c1 , I see its inhibition listed as 25%

* * *

The following molecules are shown together with reported viability at 10 µM values.
System: MCF7
protocol-description: Induction of apoptosis in human MCF7 cells assessed as viable cells at 10 uM after 72 hrs by annexin V-FITC/propidium iodide staining-based flow cytometric method (reference value: 76%)
Type: functional
condition-notes: MCF7, 72 h, read-out: Activity
Use % as the unit, but write only the number.

Solved cases below.
# molecule, quantity-unit, viability at 10 µM
rows = [
    ("CC(Nc1nc2nc3ccccc3nc2c(=O)[nH]1)c1ccccc1 (stereo not given)", "%", 45.8),
    ("COc1ccc2nc3nc(NCc4ccc(CN5CCN(C)CC5)cc4)[nH]c(=O)c3nc2c1", "%", 72.2),
    ("COc1ccc(CCN2CCC(Nc3nc4nc5ccc(C)cc5nc4c(=O)[nH]3)CC2)cc1", "%", 44.6),
    ("O=c1[nH]c(NCc2ccc(CN3CCOCC3)cc2)nc2nc3ccc(Cl)cc3nc12", "%", 58),
]

Now for the molecule whose viability at 10 µM we want.
For COc1ccc2nc3nc(NCc4ccc(CN(C)C)cc4)[nH]c(=O)c3nc2c1 the molecule record lists viability at 10 µM as 60

* * *

system: Casein kinase I isoform alpha (Homo sapiens) (UniProt P48729)
Sequence (P48729 2-337 limits assumed): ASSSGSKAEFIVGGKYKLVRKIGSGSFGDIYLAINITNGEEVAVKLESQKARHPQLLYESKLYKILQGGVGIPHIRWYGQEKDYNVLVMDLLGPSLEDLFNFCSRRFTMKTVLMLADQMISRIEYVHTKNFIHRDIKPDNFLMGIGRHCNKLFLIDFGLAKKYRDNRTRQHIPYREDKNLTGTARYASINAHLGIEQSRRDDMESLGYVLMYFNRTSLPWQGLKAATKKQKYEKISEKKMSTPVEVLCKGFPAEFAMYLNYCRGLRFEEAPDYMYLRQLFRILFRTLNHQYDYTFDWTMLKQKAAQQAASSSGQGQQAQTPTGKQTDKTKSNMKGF
protocol-description: Inhibition of CK1alpha1 (unknown origin) at 10 uM by [33P]-ATP radiometric assay
inhibition: recorded values
Enter your answer as a number in %; do not include the unit.

# compound COc1ccc2nc3nc(NCc4ccc(CN5CCN(C)CC5)cc4)[nH]c(=O)c3nc2c1 ; its inhibition = -1

inhibition in this record for Cc1ccc(NC(=O)c2ccc(CN3CCN(C)CC3)cc2)cc1Nc1nccc(-c2cccnc2)n1 : 11

// sample O=c1[nH]c(NCc2ccc(CN3CCCCC3)cc2)nc2nc3ccccc3cc12 , its inhibition was -6

Form: compound = COc1ccc(CCN2CCC(Nc3nc4nc5ccc(C)cc5nc4c(=O)[nH]3)CC2)cc1 ; inhibition = 9

* * *

system: Mitogen-activated protein kinase 8 (Homo sapiens)
protocol-description: Inhibition of JNK1 (unknown origin) at 10 uM by [33P]-ATP radiometric assay
inhibition listing for selected compounds.
Provide only the numeric value, understood in %.

Here are 4 compounds together with their reported answers.
# smi, inhibition / %
records = [
    ("O=c1[nH]c(NCc2ccc(CN3CCCCC3)cc2)nc2nc3ccccc3cc12", -7),
    ("Cc1ccc2nc3nc(NCc4ccc(CN5CCN(C)CC5)cc4)[nH]c(=O)c3cc2c1", -4),
    ("COc1ccc(CCN2CCC(Nc3nc4nc5ccc(C)cc5nc4c(=O)[nH]3)CC2)cc1", 10),
    ("CN1CCN(Cc2ccc(CNc3nc4nc5ccc(Cl)cc5cc4c(=O)[nH]3)cc2)CC1", -5),
]

GET /value?item= COc1ccc2nc3nc(NCc4ccc(CN5CCN(C)CC5)cc4)[nH]c(=O)c3nc2c1 &field=inhibition returns -7

* * *

system: Mitogen-activated protein kinase 3 (Homo sapiens)
protocol-description: Inhibition of ERK1 (unknown origin) at 10 uM by [33P]-ATP radiometric assay
endpoint-label: inhibition (%)
Unit % implied. Number only.

Consider the worked cases shown below.
# smi, quantity-unit, inhibition
measured = [
    ("O=c1[nH]c(NCc2ccc(CN3CCCCC3)cc2)nc2nc3ccccc3cc12", "%", -1),
    ("COc1ccc(CCN2CCC(Nc3nc4nc5ccc(C)cc5nc4c(=O)[nH]3)CC2)cc1", "%", 8),
    ("Cc1ccc2nc3nc(NCc4ccc(CN5CCN(C)CC5)cc4)[nH]c(=O)c3cc2c1", "%", 5),
]

Entry Cc1ccc(NC(=O)c2ccc(CN3CCN(C)CC3)cc2)cc1Nc1nccc(-c2cccnc2)n1 — recorded inhibition = -2

COc1ccc2nc3nc(NCc4ccc(CN5CCN(C)CC5)cc4)[nH]c(=O)c3nc2c1 has a reported inhibition of 7

compound CN1CCN(Cc2ccc(CNc3nc4nc5ccc(Cl)cc5cc4c(=O)[nH]3)cc2)CC1 , inhibition observed: 6

* * *

Consider the following molecules and their measured inhibition readings.
system: Mast/stem cell growth factor receptor Kit (Homo sapiens)
protocol-description: Inhibition of c-KIT (unknown origin) at 10 uM by [33P]-ATP radiometric assay
Lab book: enter the figure in %, no units written.

Answered cases to consult:
# smi, inhibition [%]
measured = [
    ("COc1ccc(CCN2CCC(Nc3nc4nc5ccc(C)cc5nc4c(=O)[nH]3)CC2)cc1", -7),
    ("Cc1ccc2nc3nc(NCc4ccc(CN5CCN(C)CC5)cc4)[nH]c(=O)c3cc2c1", 36),
    ("CN1CCN(Cc2ccc(CNc3nc4nc5ccc(Cl)cc5cc4c(=O)[nH]3)cc2)CC1", 60),
    ("O=c1[nH]c(NCc2ccc(CN3CCCCC3)cc2)nc2nc3ccccc3cc12", 32),
]

// switching to the query molecule
The recorded inhibition for COc1ccc2nc3nc(NCc4ccc(CN5CCN(C)CC5)cc4)[nH]c(=O)c3nc2c1 is -9
